Provenance of the data: the RNAGym collection of RNA variant scans (doi:10.7554/elife.80360)

B1: HDV Ribozyme (parent)
chain: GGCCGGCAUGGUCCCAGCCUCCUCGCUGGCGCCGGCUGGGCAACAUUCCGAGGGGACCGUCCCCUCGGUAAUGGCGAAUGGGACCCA

variants of: B1; assay: self-cleavage, relative activity (ratio to wild type); higher = more cleavage; co-transcriptional
Decision: self-cleavage >= 0.5 yields true (1), all other cases yield false (0).

Illustrative cases are given below, each with its answer.
Query: Please tell me: is the variant G5C G50C at or over 0.5 in terms of self-cleavage?
Result: false (0)

Query: Hi, just wondering whether A8U G81C shows self-cleavage of 0.5 or higher.
Result: false (0)

Query: Decide: is the reported value of self-cleavage for U9G G53C equal to or greater than 0.5?
Result: true (1)

Continuing:
Query: // inclusive: self-cleavage at least 0.5? input: U47A A51G
Result: true (1)

Query: Textbook exercise: given the entry U65A G67C , state whether its self-cleavage is greater than or equal to 0.5.
Result: true (1)

Query: Test whether the variant C66U A78U records self-cleavage of 0.5 or higher.
Result: false (0)

Query: Reported self-cleavage at or above 0.5? C22A U46A
Result: false (0)

Query: Hi, just wondering whether C33G G50U shows self-cleavage of 0.5 or higher.
Result: false (0)

Query: Hi team, for G50A G74U , is the recorded self-cleavage at or above 0.5?
Result: false (0)

Query: Could you please find out whether G10U A51G has self-cleavage that meets 0.5 or exceeds it?
Result: true (1)

Query: Determine whether this variant has self-cleavage no lower than 0.5: `G10U`
Result: true (1)

Query: Can C7U U46A be said to have self-cleavage at or above 0.5?
Result: true (1)

Query: Would you say G54U G81C shows self-cleavage at minimum 0.5?
Result: false (0)

Query: Determine whether this variant has self-cleavage no lower than 0.5: G11C A87G
Result: false (0)

Query: Entry U9G A43U : is its self-cleavage no less than 0.5?
Result: true (1)

Query: Does C19U U27G have a reported self-cleavage of at least 0.5?
Result: false (0)

Query: Does the reported self-cleavage for G11A U20A fall at or above the 0.5 mark?
Result: false (0)

Query: Could you tell me if the measured self-cleavage of C7A G55C reaches 0.5 or more?
Result: true (1)

Query: Given A51G U60C , state whether its self-cleavage is at least 0.5.
Result: true (1)

Query: Given the entry C61U G76U , answer whether its self-cleavage meets or surpasses 0.5.
Result: true (1)
